Give Activity for every item shown.
Organism: Rattus norvegicus
assayInfo: Evaluation of vasopressor activity
Assay type: functional

In: For "CC[C@H](C)[C@@H]1NC(=O)[C@H](Cc2ccc(O)cc2)NC(=O)[C@@H](N)CSSC[C@@H](C(=O)N(C)[C@@H](C)C(=O)N[C@@H](CC(C)C)C(=O)NCC(N)=O)NC(=O)[C@H](CC(N)=O)NC(=O)[C@H]([C@@H](C)O)NC1=O" , what is its reported Activity?
Out: <0.6 U mg-1

In: For "CC[C@H](C)[C@@H]1NC(=O)[C@H](Cc2ccc(O)cc2)NC(=O)[C@@H](N)CSSC[C@@H](C(=O)N(C)CC(=O)N[C@@H](CC(C)C)C(=O)NCC(N)=O)NC(=O)[C@H](CC(N)=O)NC(=O)[C@H](CCC(N)=O)NC1=O" , what is its reported Activity?
Out: <0.35 U mg-1

In: For "CC[C@H](C)[C@@H]1NC(=O)[C@H](Cc2ccc(O)cc2)NC(=O)[C@@H](N)CSSC[C@@H](C(=O)N(C)[C@@H](C)C(=O)N[C@@H](CC(C)C)C(=O)NCC(N)=O)NC(=O)[C@H](CC(N)=O)NC(=O)[C@H](CCC(N)=O)NC1=O" , what is its reported Activity?
Out: <0.35 U mg-1

In: For "CC[C@H](C)[C@@H]1NC(=O)[C@H](Cc2ccc(O)cc2)NC(=O)[C@@H](N)CSSC[C@@H](C(=O)N(C)CC(=O)N[C@@H](CC(C)C)C(=O)NCC(N)=O)NC(=O)[C@H](CC(N)=O)NC(=O)[C@H]([C@@H](C)O)NC1=O" , what is its reported Activity?
Out: <0.5 U mg-1

In: For "CC[C@H](C)[C@@H]1NC(=O)[C@H](Cc2ccc(O)cc2)NC(=O)[C@@H](N)CSSC[C@@H](C(=O)N2CCC[C@H]2C(=O)N[C@@H](CC(C)C)C(=O)NCC(N)=O)NC(=O)[C@H](CC(N)=O)NC(=O)[C@H]([C@@H](C)O)NC1=O" , what is its reported Activity?
Out: 0.43 U mg-1

----------
assayInfo: Ratio of Oxytocin to Antidiuretic activity
Type: functional, Urine
metric: Ratio
Lab note: record the figure alone, no unit after it.

In: For "CC[C@H](C)[C@@H]1NC(=O)[C@H](Cc2ccc(O)cc2)NC(=O)[C@@H](N)CSSC[C@@H](C(=O)N(C)[C@@H](C)C(=O)N[C@@H](CC(C)C)C(=O)NCC(N)=O)NC(=O)[C@H](CC(N)=O)NC(=O)[C@H](CCC(N)=O)NC1=O" , what is its reported Ratio?
Out: 516

In: For "CC[C@H](C)[C@@H]1NC(=O)[C@H](Cc2ccc(O)cc2)NC(=O)[C@@H](N)CSSC[C@@H](C(=O)N(C)CC(=O)N[C@@H](CC(C)C)C(=O)NCC(N)=O)NC(=O)[C@H](CC(N)=O)NC(=O)[C@H](CCC(N)=O)NC1=O" , what is its reported Ratio?
Out: 2550

In: For "CC[C@H](C)[C@@H]1NC(=O)[C@H](Cc2ccc(O)cc2)NC(=O)[C@@H](N)CSSC[C@@H](C(=O)N(C)[C@@H](C)C(=O)N[C@@H](CC(C)C)C(=O)NCC(N)=O)NC(=O)[C@H](CC(N)=O)NC(=O)[C@H]([C@@H](C)O)NC1=O" , what is its reported Ratio?
Out: 2450

In: For "CC[C@H](C)[C@@H]1NC(=O)[C@H](Cc2ccc(O)cc2)NC(=O)[C@@H](N)CSSC[C@@H](C(=O)N(C)CC(=O)N[C@@H](CC(C)C)C(=O)NCC(N)=O)NC(=O)[C@H](CC(N)=O)NC(=O)[C@H]([C@@H](C)O)NC1=O" , what is its reported Ratio?
Out: 31700

In: For "CC[C@H](C)[C@@H]1NC(=O)[C@H](Cc2ccc(O)cc2)NC(=O)[C@@H](N)CSSC[C@@H](C(=O)N2CCC[C@H]2C(=O)N[C@@H](CC(C)C)C(=O)NCC(N)=O)NC(=O)[C@H](CC(N)=O)NC(=O)[C@H]([C@@H](C)O)NC1=O" , what is its reported Ratio?
Out: 510
